Source listed as patent US20050014280A1.

testName: Immobilized artificial membrane (IAM) HPLC capacity factor
Type: physicochemical
studyConditions: mobile phase buffer pH 7.4 / 15% acetonitrile, 37° C.
Description: Sample Preparation: Between 3 and 10 mg of each sample was dissolved in a solution of 10% methanol, 90% water in preparation for injection onto the column. HPLC Conditions: A Regis IAM.PC.DD2 column (30 mm×4.6 mm, 12 μm) was used, run at 37° C. at a flow rate of 1.0 ml/min. […] Elution of reference compounds was detected by ultraviolet absorbance at 210 nm. […]
Measured logk′IAM determines class: low (below 0.3), medium (0.3 to below 1), high (1 or more)

input: In plain terms, what class is CC(C)(C)NCC(O)c1cc(O)cc(O)c1 (stereo not drawn) [Terbutaline] ?
output: low

input: In plain terms, what class is CCN1CCCC1CNC(=O)c1cc(S(N)(=O)=O)ccc1OC (stereo not drawn) [Sulpiride] ?
output: low

input: In plain terms, what class is CC(C)NCC(O)COc1cccc2[nH]ccc12 (stereo not drawn) [Pindolol] ?
output: medium

input: In plain terms, what class is C=CCc1ccccc1OCC(O)CNC(C)C (stereo not drawn) [Alprenolol] ?
output: high

input: In plain terms, what class is CC(C)(C)NCC(O)COc1cccc2c1CC(O)C(O)C2 (stereo not drawn) [Nadolol] ?
output: low

input: In plain terms, what class is CN/C(=C\[N+](=O)[O-])NCCSCc1ccc(CN(C)C)o1 [Ranitidine] ?
output: low

input: In plain terms, what class is COc1ccc([C@@H]2Sc3ccccc3N(CCN(C)C)C(=O)[C@@H]2OC(C)=O)cc1 [Diltiazem] ?
output: high

input: In plain terms, what class is Clc1cccc(Cl)c1N=C1NCCN1 [Clonidine] ?
output: medium

input: In plain terms, what class is CN(C)CCCN1c2ccccc2CCc2ccccc21 [Imipramine] ?
output: high

input: In plain terms, what class is COCCc1ccc(OCC(O)CNC(C)C)cc1 (stereo not drawn) [Metoprolol] ?
output: medium

input: In plain terms, what class is CC(C)NCC(O)COc1cccc2ccccc12 (stereo not drawn) [Propranolol] ?
output: high

input: In plain terms, what class is CC(CCc1ccccc1)NCC(O)c1ccc(O)c(C(N)=O)c1 (stereo not drawn) [Labetalol] ?
output: high

---

testName: Caco-2 cell permeability assay (published Pm values)
Assay type: in vitro ADME
studyConditions: human; Caco 2 donor pH 5.5; log of Pm in 10^−6 cm/s; read-out: Pm (converted)
measuredMetric: Papp
// unit must come after the numeric part

input: I have this molecule here, CCN(CC)CCOC(=O)c1ccc(N)cc1 [Procaine] , and I need its recorded Papp.
output: 1.94 ×10⁻⁶ cm/s

---

testName: Caco-2 cell permeability assay (published Pm values)
Format: in vitro ADME
studyConditions: human; Caco 2 donor pH 7.4; log of Pm in 10^−6 cm/s; read-out: Pm (converted)
Provide the reported Papp of each item.

input: I have this compound here, C=CCc1ccccc1OCC(O)CNC(C)C (stereo not shown) , and I need its recorded Papp.
output: 25.3 ×10⁻⁶ cm/s

input: I have this compound here, CC(C)(C)NCC(O)c1cc(O)cc(O)c1 (stereo not shown) , and I need its recorded Papp.
output: 1.4 ×10⁻⁶ cm/s

input: I have this compound here, CC(C)(C)NCC(O)COc1cccc2c1CC(O)C(O)C2 (stereo not shown) , and I need its recorded Papp.
output: 3.88 ×10⁻⁶ cm/s

input: I have this compound here, CN/C(=C\[N+](=O)[O-])NCCSCc1ccc(CN(C)C)o1 , and I need its recorded Papp.
output: 0.49 ×10⁻⁶ cm/s

---

testName: Caco-2 cell permeability assay (published Pm values)
Format: in vitro ADME
studyConditions: human; Caco 2 donor pH 6.5; log of Pm in 10^−6 cm/s; read-out: Pm (converted)
measuredMetric: Papp (×10⁻⁶ cm/s)
Unit ×10⁻⁶ cm/s implied. Number only.

input: I have this molecule here, CNS(=O)(=O)Cc1ccc2[nH]cc(CCN(C)C)c2c1 [Sumatriptan] , and I need its recorded Papp.
output: 3

---

testName: Caco-2 cell permeability assay (published Pm values)
Type: in vitro ADME
studyConditions: human, Caco-2, pH 7.4
Provide the reported Papp of each item.
Unit nm/s implied. Number only.

input: I have this compound here, CC(C)NCC(O)COc1cccc2[nH]ccc12 (stereo not shown) , and I need its recorded Papp.
output: 167

input: I have this compound here, CC(C)NCC(O)COc1cccc2ccccc12 (stereo not shown) , and I need its recorded Papp.
output: 325

input: I have this compound here, Clc1cccc(Cl)c1N=C1NCCN1 , and I need its recorded Papp.
output: 218

input: I have this compound here, COCCc1ccc(OCC(O)CNC(C)C)cc1 (stereo not shown) , and I need its recorded Papp.
output: 237
